Test system: human spermatozoa
Assay: change in acrosome-reacted (PNA+) sperm vs DMSO, no agonist (capacitating); higher = more of the measured sperm population than DMSO, for viability, fewer PI-positive (dead) cells than DMSO
Settings: incubation time: 3h, 9.99 µM
The following compounds are shown together with reported change in acrosome-reacted values.

{"COMPOUND": "CN(C)CCCn1cc(C2=C(c3c[nH]c4ccccc34)C(=O)NC2=O)c2ccccc21", "change in acrosome-reacted / %": 0.106}
{"COMPOUND": "C=C[C@@]1(C)CC(=O)[C@@]2(O)[C@](C)(O1)[C@@H](OC(C)=O)[C@@H](O)C1C(C)(C)CC[C@H](O)[C@@]12C (stereo partly drawn) [Forskolin]", "change in acrosome-reacted / %": 0.404}
{"COMPOUND": "Oc1c(Cl)cc(Cl)c(Cl)c1Cc1c(O)c(Cl)cc(Cl)c1Cl [Hexachlorophene]", "change in acrosome-reacted / %": 0.634}
{"COMPOUND": "O=c1sn(-c2cccc3ccccc23)c(=O)n1Cc1ccccc1 [Tideglusib]", "change in acrosome-reacted / %": 0.723}
{"COMPOUND": "Nc1nonc1C(=O)c1cccc(OCc2nc3ccccc3[nH]2)c1 [ASI-8]", "change in acrosome-reacted / %": 0.432}
{"COMPOUND": "CC(C)Cn1c(=O)n(C)c(=O)c2[nH]cnc21 [IBMX]", "change in acrosome-reacted / %": 0.651}
{"COMPOUND": "CC1(C)CC=C(c2ccccc2)c2cc(/C=C/c3ccc(C(=O)O)cc3)ccc21", "change in acrosome-reacted / %": 1.18}
{"COMPOUND": "COc1ccc2nc([S@@+]([O-])Cc3ncc(C)c(OC)c3C)[nH]c2c1 [Esomeprazole]", "change in acrosome-reacted / %": 0.624}

----------
System: human spermatozoa
Experiment: change in acrosome-reacted (PNA+) sperm vs DMSO, no agonist (capacitating); higher = more of the measured sperm population than DMSO, for viability, fewer PI-positive (dead) cells than DMSO
Conditions: incubation time: 3h, 9.99 µM
Counter-ions that a name gives are not always drawn.
Here, each record is paired with measured change in acrosome-reacted data.

{"COMPOUND": "CCCCC/C=C\\C/C=C\\C/C=C\\C/C=C\\CCCC(=O)NCCO [Anandamide]", "change in acrosome-reacted (%)": 0.407}
{"COMPOUND": "CC(C)C(C(=O)OC(C#N)c1cccc(Oc2ccccc2)c1)c1ccc(Cl)cc1 (centres undefined) [Fenvalerate]", "change in acrosome-reacted (%)": 1.05}
{"COMPOUND": "CC(C)(O)c1ccn2c(-c3ccc(F)c(-c4ccc(F)cc4C#N)c3)cnc2c1F [TP 003]", "change in acrosome-reacted (%)": 1.9}
{"COMPOUND": "CC(C)c1ccc2c(c1)CC[C@H]1[C@](C)(CN)CCC[C@]21C [Leelamine hydrochloride]", "change in acrosome-reacted (%)": 5.38}

----------
Each record here notes measured HeLa toxicity: nuclei-count effect normalised.
System: HeLa
Assay: HeLa toxicity: nuclei-count effect normalised to DMSO (DMSO = 0); higher = more features changed / larger toxic effect
Conditions: incubation time: 24h incubation; 9.99 µM
Where a name gives a salt, the structure may show the parent alone.
REPORTED_PROPERTY: HeLa toxicity: nuclei-count effect normalised (%)

{"COMPOUND": "COC(=O)c1c(C)[nH]c(C)c1C(=O)c1ccccc1Cc1ccccc1", "UNITS_SYMBOL": "%", "VALUE": 4.01}
{"COMPOUND": "CCOCc1nc2c(N)nc3ccccc3c2n1CC(C)(C)O [Resiquimod]", "UNITS_SYMBOL": "%", "VALUE": 1.14}
{"COMPOUND": "CC1(C)CC=C(c2ccccc2)c2cc(/C=C/c3ccc(C(=O)O)cc3)ccc21", "UNITS_SYMBOL": "%", "VALUE": 6.08}
{"COMPOUND": "c1ccc2c(c1)SCc1c-2[nH]c2ccccc12", "UNITS_SYMBOL": "%", "VALUE": 83.9}
{"COMPOUND": "CN(c1ccccc1CNc1nc(Nc2ccc3c(c2)CC(=O)N3)ncc1C(F)(F)F)S(C)(=O)=O", "UNITS_SYMBOL": "%", "VALUE": 81.5}
{"COMPOUND": "CCS(=O)(=O)Nc1ccc2c(c1)/C(=C(/Nc1ccc(CN3CCCCC3)cc1)c1ccccc1)C(=O)N2 [Hesperadin hydrochloride]", "UNITS_SYMBOL": "%", "VALUE": 84.4}
{"COMPOUND": "O=C(O)c1cccnc1Nc1cccc(C(F)(F)F)c1 [Niflumic acid]", "UNITS_SYMBOL": "%", "VALUE": 2.94}
{"COMPOUND": "N=C(N)Nc1ccc(C(=O)Oc2ccc3cc(C(=N)N)ccc3c2)cc1 [Nafamostat]", "UNITS_SYMBOL": "%", "VALUE": 2.4}
{"COMPOUND": "[O]=[V]([O-])([O-])[O-] [Sodium orthovanadate]", "UNITS_SYMBOL": "%", "VALUE": -6.61}
{"COMPOUND": "CNS(=O)(=O)c1ccccc1Nc1nc(Nc2ccc(C3CCN(C)CC3)cc2OC)ncc1Cl [Compound 19]", "UNITS_SYMBOL": "%", "VALUE": 98.9}
{"COMPOUND": "O.O.O.OO.OO.[K+].[OH-].[V].c1cnc2c(c1)ccc1cccnc12 [bpV(phen)]", "UNITS_SYMBOL": "%", "VALUE": 34.3}
{"COMPOUND": "O=C(O)c1ccc(/C=C2/SC(=S)N(c3cccc(C(F)(F)F)c3)C2=O)cc1 [CTFRinh-172]", "UNITS_SYMBOL": "%", "VALUE": 0.134}
{"COMPOUND": "COc1cc(C(=O)N2CCC(N3CCN(C)CC3)CC2)ccc1Nc1ncc2c(n1)N(C)c1ccccc1C(=O)N2C [LRRK2-IN-1]", "UNITS_SYMBOL": "%", "VALUE": 44.2}
{"COMPOUND": "CCCCN1C[C@@H](O)[C@H](O)[C@H](O)[C@@H]1CO [Miglustat]", "UNITS_SYMBOL": "%", "VALUE": 0.0668}
{"COMPOUND": "Cn1c(=O)c2c(-c3ccccc3)n3c(c2n(C)c1=O)[C@H](c1ccc(Br)o1)Oc1ccc(C(=O)O)cc1-3 [BPO-27]", "UNITS_SYMBOL": "%", "VALUE": -5.61}
{"COMPOUND": "CCCCC(CC)C/N=C(\\N)N/C(N)=N/CCCCCC/N=C(\\N)N/C(N)=N/CC(CC)CCCC (stereo unspecified) [Alexidine dihydrochloride]", "UNITS_SYMBOL": "%", "VALUE": 82.5}
